target: T1, human TrkB monomer (His ECD) (human, UniProt Q16620 32-430); test: SPR (Biacore), Fab over amine-coupled TrkB His ECD monomer, 25 C
T1 construct: extracellular domain; amine-coupled to the chip
T1 sequence (Q16620 32-430): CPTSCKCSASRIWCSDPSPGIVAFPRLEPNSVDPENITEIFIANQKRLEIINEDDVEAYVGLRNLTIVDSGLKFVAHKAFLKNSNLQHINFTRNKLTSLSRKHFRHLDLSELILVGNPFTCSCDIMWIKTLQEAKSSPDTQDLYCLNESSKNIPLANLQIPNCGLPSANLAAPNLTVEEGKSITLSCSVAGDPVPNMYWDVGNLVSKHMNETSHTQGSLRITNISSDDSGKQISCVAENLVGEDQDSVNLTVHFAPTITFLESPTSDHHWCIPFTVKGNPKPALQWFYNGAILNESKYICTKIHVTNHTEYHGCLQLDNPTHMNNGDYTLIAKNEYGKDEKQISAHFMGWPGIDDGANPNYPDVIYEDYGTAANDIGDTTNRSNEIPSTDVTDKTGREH
Measurement label: kon (M⁻¹ s⁻¹)
Use M⁻¹ s⁻¹ as the unit, but write only the number.

Reported kon of 4B12 (Fab, V domains shown, Fab) VH: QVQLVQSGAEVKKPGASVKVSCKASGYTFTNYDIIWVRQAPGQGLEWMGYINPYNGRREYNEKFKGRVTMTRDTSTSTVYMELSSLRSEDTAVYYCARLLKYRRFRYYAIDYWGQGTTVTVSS VL: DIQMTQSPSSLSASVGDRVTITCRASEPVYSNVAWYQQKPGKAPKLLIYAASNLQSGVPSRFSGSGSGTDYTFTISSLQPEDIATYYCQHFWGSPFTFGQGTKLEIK : 2.5e+06

Reported kon of C2 (Fab, V domains shown, Fab) VH: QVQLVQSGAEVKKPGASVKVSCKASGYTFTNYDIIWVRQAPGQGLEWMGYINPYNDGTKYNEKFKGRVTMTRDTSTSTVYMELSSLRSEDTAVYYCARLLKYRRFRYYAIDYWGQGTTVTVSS VL: DIQMTQSPSSLSASVGDRVTITCRTSENVYSNLAWYQQKPGKAPKLLIYAASNLQSGVPSRFSGSGSGTDYTFTISSLQPEDIATYYCQHFWGSPFTFGQGTKLEIK : 552000

Reported kon of 4A6 (Fab, V domains shown, Fab) VH: QVQLVQSGAEVKKPGASVKVSCKASGYTFTNYDIIWVRQAPGQGLEWMGYINPYNRRREYNEKFKGRVTMTRDTSTSTVYMELSSLRSEDTAVYYCARLLKYRRFRYYAIDYWGQGTTVTVSS VL: DIQMTQSPSSLSASVGDRVTITCHASENVYSNLAWYQQKPGKAPKLLIYAASNLQSGVPSRFSGSGSGTDYTFTISSLQPEDIATYYCQHFWGSPFTFGQGTKLEIK : 3.89e+06

Reported kon of A2 (Fab, V domains shown, Fab) VH: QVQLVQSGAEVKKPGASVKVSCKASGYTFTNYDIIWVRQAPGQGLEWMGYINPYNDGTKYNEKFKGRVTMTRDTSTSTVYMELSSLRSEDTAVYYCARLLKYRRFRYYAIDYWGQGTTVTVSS VL: DIQMTQSPSSLSASVGDRVTITCRASENVYSNLAWYQQKPGKAPKLLIYAASNLQSGVPSRFSGSGSGTDYTFTISSLQPEDIATYYCQHFWYSPWTFGQGTKLEIK : 1.34e+06
